The measured values listed here are drawn from ChEMBL document CHEMBL4699542.

Test: Efflux ratio of apparent permeability from basolateral to apical membrane over apical to basolateral membrane in MDCK-MDR1 cells
Assay type: ADME, cell-based, Canis lupus familiaris
Settings: dog
attributeMeasured: Ratio

                                        smi  attributemeasured  recordedmeasurement
0  CCn1nc(C2(C)CC2)cc1Nc1nc(-c2ccc(-n3cnc(C)c3)c(OC)n2)cs1              Ratio                  1.3
1  COc1nc(-c2csc(Nc3c4c(nn3CCF)CCCC4)n2)ccc1-n1cnc(C)c1              Ratio                  1.9
2  COc1nc(-c2csc(Nc3c4c(nn3C)CCC4)n2)ccc1-n1cnc(C)c1              Ratio                  1.9

Sure, the documented Ratio for COc1nc(-c2csc(Nc3c4c(nn3C(C)(C)C)CCCC4)n2)ccc1-n1cnc(C)c1 is 0.9
